Conditions: in water, 335.9 K
assay.endpoint: solubility (mole fraction)

INPUT: State the recorded solubility (mole fraction) for this entry: CCn1cc(C(=O)O)c(=O)c2cc(F)c(N3CCNC(C)C3)c(F)c21.Cl (stereo unspecified)
OUTPUT: 0.00129

----------
Conditions: in ethanol, 313.2 K
assay.endpoint: solubility (mole fraction)
Please state the value as a number alone, without comment.

INPUT: State the recorded solubility (mole fraction) for this entry: CCn1cc(C(=O)O)c(=O)c2cc(F)c(N3CCNC(C)C3)c(F)c21.Cl (stereo unspecified)
OUTPUT: 4.1e-05

----------
Conditions: in ethanol, 323.2 K
assay.endpoint: solubility (mole fraction)
Please state the value as a number alone, without comment.

INPUT: State the recorded solubility (mole fraction) for this entry: CCn1cc(C(=O)O)c(=O)c2cc(F)c(N3CCNC(C)C3)c(F)c21.Cl (stereo unspecified)
OUTPUT: 5e-05
